tested on: SK-MEL-2; experiment: NCI tumour cell line growth inhibition, 48 h
The source made the active and inactive calls. Cut-off read from the data, not from the text of the source: active = GI50 up to about 1.1 µM and inactive = higher.
metric: GI50

Solved cases (4 shown):
compound | GI50
COc1ccc(C(CC(=O)C(C)(C)CN2CCCCC2)SCCS(=O)(=O)O)cc1 (centres undefined) | > 100 µM (inactive)
C=C[C@@H]1C(CO)=CCC2[C@H]1CCC1C(C)(C)C(=O)CC[C@]21C (some centres undefined) | > 100 µM (inactive)
CN(C)Cc1cc(C(=O)/C=C/c2c(F)cccc2Cl)cc(CN(C)C)c1O | 15.6 µM (inactive)
Cc1ccc(/C=N/Nc2cc(C)c3ccccc3n2)s1 | 34.1 µM (inactive)

Report GI50 for `CC(=O)ON(OC(C)=O)c1ccc(C)cc1` tested on SK-MEL-2.
> 100 µM (inactive)

Would you kindly repeat that for `COc1ccc(/[N+]([O-])=C/c2ccccc2OC(=S)S)cc1` ?
28.2 µM (inactive)

Another compound to look at: `CC1(C)CC(=O)c2c(nc(SSc3nc4c(c(-c5ccccc5)c3C#N)C(=O)CC(C)(C)C4)c(C#N)c2-c2ccccc2)C1`
> 10 µM (inactive)

Same question, CC(C)CC(N)C(=O)OCN1C(=O)C2C3C=CC(C2C1=O)C1C2C(=O)N(COC(=O)C(N)CC(C)C)C(=O)C2C31 (centres undefined) this time
> 100 µM (inactive)

# repeat for `c1cc2[se][se]c3c4cccc5[se][se]c(c(c1)c23)c54`
> 100 µM (inactive)

Quick one: COC(=O)[C@H]1C=C[C@H](OC2OC(COC(C)=O)C(OC(C)=O)C(OC(C)=O)C2OC(C)=O)n2c(=O)n(-c3ccccc3)c(=O)n21 (some centres undefined)
12.1 µM (inactive)

Record: `Cc1cc2nc(-c3cc(C(C)(C)C)c(O)c(C(C)(C)C)c3)[nH]c2cc1C`
> 100 µM (inactive)

Follow-up entry: `NCc1ccc(O)c(O)c1`
> 100 µM (inactive)

Same again, this time with Cn1c2c(c3ccccc31)CC(=S)N1CCCC(CC2O)C1 (centres undefined)
> 100 µM (inactive)
